- test details: IV and PO pharmacokinetic studies of prodrug salts (Iab, Ibb, Icb) in the rat, with historical parent data
- Type: in vivo, Sprague-Dawley rats
- test parameters: Sprague-Dawley, plasma, historical parent, PO 5 mg/kg, read-out: Tmax (hr), PO
- Method: All blood samples (0.3 mL) were colleted in microtainers containing K2EDTA (Becton Dickinson, Franklin Lakes, N.J.) and placed on chipped ice. After centrifugation, plasma was separated and stored at −20° C. until analysis. […] The pharmacokinetic parameters of Iab and IVa were calculated by Non-Compartmental Analysis using the […]™ software program (version 4.0.2, InnaPhase Co., Philadelphia, Pa.). The Cmax and Tmax values were recorded directly from experimental observations. […]
property measured: Tmax (h)
Give bare numbers, in h.

Please go through the list and note Tmax for each compound.
1. COc1ncc(OC)c2c(C(=O)C(=O)N3CCN(C(=O)c4ccccc4)CC3)c[nH]c12 [IVa]
2. COc1cnc(-n2cnc(C)n2)c2[nH]cc(C(=O)C(=O)N3CCN(C(=O)c4ccccc4)CC3)c12 [IVc]

1: 2; 2: 4

What value of Tmax has been reported for the following compound? O=C(C(=O)N1CCN(C(=O)c2ccccc2)CC1)c1c[nH]c2c(-n3ccnn3)ncc(F)c12 [IVb]
4.7

----------
- test details: Oral dose escalation study in rats (Study D of Ica; historical Study E of IVc)
- Assay type: in vivo
- test parameters: Sprague-Dawley, rat, plasma, po, 25 mg/kg; read-out: Mean AUCtot
property measured: AUC
Quick note: number first, unit second.

What value of AUC has been reported for the following compound? COc1cnc(-n2cnc(C)n2)c2[nH]cc(C(=O)C(=O)N3CCN(C(=O)c4ccccc4)CC3)c12
458 µM·h

----------
- test details: Single-dose toxicokinetic and tolerability study of prodrugs in dogs
- Format: in vivo, dog
- test parameters: female, dog, plasma, po, 90 mg/kg, IVa, Iab 90 mg/kg Solution; Dogs #3201, #3202
property measured: AUC(0-inf) (µM·h)
Give bare numbers, in µM·h.

What value of AUC(0-inf) has been reported for the following compound? COc1ncc(OC)c2c(C(=O)C(=O)N3CCN(C(=O)c4ccccc4)CC3)c[nH]c12
844

----------
- test details: Single-dose toxicokinetic and tolerability study of prodrugs in dogs
- Assay type: in vivo, dog
- test parameters: female, dog, plasma, po, 24 mg/kg, IVa, Iab 24 mg/kg Solution; Dogs #1201, #1202
property measured: AUC(0-inf) (µM·h)
One number for each entry, in µM·h.

What value of AUC(0-inf) has been reported for the following compound? COc1ncc(OC)c2c(C(=O)C(=O)N3CCN(C(=O)c4ccccc4)CC3)c[nH]c12 [IVa]
465

----------
I'd be grateful if you could share measured Cmax for these entries.
- test details: IV and PO pharmacokinetic studies of prodrug salts (Iab, Ibb, Icb) in the dog, with historical parent data
- Format: in vivo, beagle dogs
- test parameters: male, beagle, plasma, po, 7 mg/kg, read-out: Cmax
Numbers only, in µM.

> print(dat)
                           structure.string  unit.abbrev  measured
1  O=C(C(=O)N1CCN(C(=O)c2ccccc2)CC1)c1c[nH]c2c(-n3ccnn3)ncc(F)c12           µM        20

What value of Cmax has been reported for the following compound? O=C(C(=O)N1CCN(C(=O)c2ccccc2)CC1)c1cn(COP(=O)(O)O)c2c(-n3ccnn3)ncc(F)c12
0.034
